Data credit: paper PMC9352680

- assay.target: T1, PUF4 RNA-binding domain (Saccharomyces cerevisiae, UniProt P25339 537-888)
- T1 sequence: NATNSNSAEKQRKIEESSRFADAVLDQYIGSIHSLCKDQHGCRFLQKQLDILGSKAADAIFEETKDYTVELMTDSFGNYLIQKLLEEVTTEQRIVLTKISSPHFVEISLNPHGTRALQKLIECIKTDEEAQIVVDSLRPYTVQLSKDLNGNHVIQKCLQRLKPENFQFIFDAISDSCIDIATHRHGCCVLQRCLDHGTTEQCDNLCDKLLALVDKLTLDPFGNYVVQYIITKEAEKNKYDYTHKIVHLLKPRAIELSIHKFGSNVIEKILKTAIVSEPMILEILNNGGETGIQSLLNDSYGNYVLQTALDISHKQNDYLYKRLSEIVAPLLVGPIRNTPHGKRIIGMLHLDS
- assay.procedure: Mg; RNA-MaP; 20 mM Na-HEPES pH 7.4, 30 mM KOAc, 0.75 mM MgCl2, 0.1% Tween-20, 5% glycerol, 0.1 mg/mL BSA, 2 mM DTT; 25 C; 0.0125-409.6 nM protein
- measurement.parameters: tags: N-His6-TEV cleaved; C-SNAP kept, Cy3B-labelled; label: tethered on chip by stalled RNA polymerase
recorded.metric: Kd (nM)
Field format: number, assumed nM, no unit text.

Some binders with recorded Kd:
INSERT INTO results (binder, unit, recorded_measurement) VALUES
  ('Ib_S4_P5E.1_K5.1_C5.1_H5.1_[G2A]_A5.1_[A7G]_F5.1_T5.1 (ssRNA) RNA: UUUGACAACUGAUCGUUCUUUCUUAUAUUGUUAUUCUUUCUCGAUCAGUUGUCUUU', 'nM', 904),
  ('Id_ii_S4_P4E.3_K4.2_C4.2_[C-2A]_[T-1A]_H4.2_A4.1_F4.1_T4.2_[G10C]_[T11G] (ssRNA) RNA: UUUGACAACUGAUCGUUCUUUCUAAUAUAUAUUACGUUCUUUCUCGAUCAGUUGUCUUU', 'nM', 189),
  ('UCUCUUCACUAUAUAUAUAUCUCUU (ssRNA) [Id_i_S1_P3E.6_K3.2_C3.3_[T-3C]_[C-2A]_[T-1C]_H3.2_A3.1_F3.1_T3.2]', 'nM', 144),
  ('Ie_S2_P3E.2_K3.1_C3.2_[+-1CCCTT]_H3.1_A3.1_F3.1_T3.2 (ssRNA) RNA: UUUGAUUAAUAUGAUAUCGUUCUUUCUCUCCCUUUGUAUAUAUAUUCUUUCUCGAUAUCAUAUUAAUCUUU', 'nM', 0.572);

# evaluate next
// recorded Kd for Ie_S2_P5E.1_K5.1_C5.1_H5.1_A5.1_[+7TCTCT]_F5.1_T5.1 (ssRNA) RNA: UUUGAUUAAUAUGAUAUCGUUCUUUCUUGUAUUAUCUCUUUAUUCUUUCUCGAUAUCAUAUUAAUCUUU : 17.2
